# Tested on: 997537-175-T-J1-PDC complex spheroid viability;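 note: spheroids exposed to the agents for 7 days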
# assay info: Anticancer human tumor 997537-175-T-J1-PDC patient-derived colon adenocarcinoma cell line growth inhibition [GQUAD]
# settings: curve of first compound; second compound 1 µM
Recorded pIC50, one value per entry.
// pIC50 is dimensionless: -log10 of concentration (M)

Some compounds with recorded pIC50:
# query: pIC50 | item COc1ccc([C@@H](O)c2cc(-c3ncnc4cc(N5CCOCC5)ccc34)c(F)cc2Cl)nn1 + Cc1cnc(CNC(=O)c2c(=O)c3ccc(N4CCCN(C)CC4)nc3n3c2sc2ccccc23)cn1 | system: 997537-175-T-J1-PDC complex spheroid viability;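 note: spheroids exposed to the agents for 7 days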
5.01

# query: pIC50 | item CCc1c2c(nc3ccc(O)cc13)-c1cc3c(c(=O)n1C2)COC(=O)[C@]3(O)CC + Cc1[nH]c2ccc(F)cc2c1-c1nc2c3cccnc3c3ncccc3c2[nH]1 | system: 997537-175-T-J1-PDC complex spheroid viability;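 note: spheroids exposed to the agents for 7 days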
8.07

# query: pIC50 | item CC1COCCN1c1cc(C2(O)CC3CCC(C2)O3)c2cnn(-c3ccn[nH]3)c2n1 (stereo unspecified) + CN(C)c1ccc(Nc2c3ccc(NC(=O)CCN4CCCC4)cc3nc3cc(NC(=O)CCN4CCCC4)ccc23)cc1 | system: 997537-175-T-J1-PDC complex spheroid viability;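 note: spheroids exposed to the agents for 7 days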
6.68

# query: pIC50 | item CC1COCCN1c1cc(-c2ccnn2C)c2ccnc(-c3ccn[nH]3)c2n1 (stereo unspecified) + Cc1[nH]c2ccc(F)cc2c1-c1nc2c3cccnc3c3ncccc3c2[nH]1 | system: 997537-175-T-J1-PDC complex spheroid viability;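 note: spheroids exposed to the agents for 7 days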
6.42

# query: pIC50 | item COc1ccc([C@@H](O)c2cc(-c3ncnc4cc(N5CCOCC5)ccc34)c(F)cc2Cl)nn1 + Cc1[nH]c2ccc(F)cc2c1-c1nc2c3cccnc3c3ncccc3c2[nH]1 | system: 997537-175-T-J1-PDC complex spheroid viability;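 note: spheroids exposed to the agents for 7 days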
5.12

Please examine the following record next.
# query: pIC50 | item C=CCn1c(=O)c2cnc(Nc3ccc(N4CCN(C)CC4)cc3)nc2n1-c1cccc(C(C)(C)O)n1 + CN(C)c1ccc(Nc2c3ccc(NC(=O)CCN4CCCC4)cc3nc3cc(NC(=O)CCN4CCCC4)ccc23)cc1 | system: 997537-175-T-J1-PDC complex spheroid viability;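 note: spheroids exposed to the agents for 7 days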
5.54
